# Experimental target: Porcine pancreatic phospholipase A₂, [ε-Cap-Lys¹¹⁶]-AMPA (Sus scrofa)
# Construct: Conversion of pro-PLA (i.e. Prec) into [ε-Acyl-Lys¹¹⁶]-AMPA; from tissue; host or cells: pig pancreas; chemically amidinated and caprinoylated at Lys116
# Sequence (P00592 23-146): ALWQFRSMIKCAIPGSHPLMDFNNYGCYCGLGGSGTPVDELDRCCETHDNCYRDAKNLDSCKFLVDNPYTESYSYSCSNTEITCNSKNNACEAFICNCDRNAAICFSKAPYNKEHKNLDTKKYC
# Procedure details: Binding to micellar cis-9-octadecenyl phosphocholine by UV absorption difference spectroscopy
# Conditions: micellar ligand, N = number of lipid monomers per molecule of enzyme, KD = micellar dissociation constant, read-out: N.KD apparent dissociation constant
Endpoint name: pKd
Numbers only, as −log10 of the molar value.

Request body: readout pKd, system Porcine pancreatic phospholipase A₂, [ε-Cap-Lys¹¹⁶]-AMPA (Sus scrofa), query CCCCCCCC/C=C\CCCCCCCCOP(=O)([O-])OCC[N+](C)(C)C [cis-9-octadecenylphosphocholine] . Return the value.
4.48

Reference source for all entries: patent EP0311163A2
